target: HLA-A*0201 (human); test: competition with 125I-labelled standard peptide 941.01 for purified HLA, gel filtration; conditions: remark: other sources report otherwise; scale: ratio
QUANTITY KIND: binding affinity ratio

- BINDER: "GLPTQEPALGT (modifications not checked)"
  ENDPOINT VALUE: 0.0003
- BINDER: "VTEFMLCAGL (modifications not checked) [… (Kallikrein, position 192, 10 amino acids)]"
  ENDPOINT VALUE: 0.0008
- BINDER: "WIKDTIAA (modifications not checked) [WIKDTIAA (Kallikrein, position 252, 8 amino acids)]"
  ENDPOINT VALUE: 0.0002
- BINDER: "GITSWGPEPCA (modifications not checked) [Kallikrein (hK2) peptide … (position 225)]"
  ENDPOINT VALUE: 0.0009
- BINDER: "GLPTQEPAL (modifications not checked)"
  ENDPOINT VALUE: 0.0002
- BINDER: "WVLTAAHCL (modifications not checked) [… (Kallikrein, position 59, 9 amino acids)]"
  ENDPOINT VALUE: 0.0003
- BINDER: "WVLTAAHCI (modifications not checked) [… (PSA, position 55, 9 amino acids)]"
  ENDPOINT VALUE: 0.0008
